Data credit: patent US20080058411A1

Test system: HT29 cells
assay.comment: SRB cytotoxicity assay, parental HT29 cells
Format: cell-based
condition.parameters: 48 hours, read-out: IC50 HT-29 ("non-resistant")
endpoint.label: IC50 (µM)
The answer is to be given in µM; state only the numeric part.

Item: N.NC1CCCCC1.[Cl-].[Cl-].[Pt+2] [JM118] | IC50: 4.5

###

Test system: MCF-7/VP cells
assay.comment: SRB cytotoxicity assay, etoposide-resistant MCF-7/VP cells (MRP1 up-regulated)
Assay type: cell-based
condition.parameters: 48 hours, SRB; read-out: IC50 MCF7/VP ("resistant")
endpoint.label: pIC50
By convention, pIC50 is the negative base-10 log of a molar concentration.

| molecule | pIC50 |
| --- | --- |
| N.N.[Cl][Pt][Cl] [Cisplatin, cisplatin] | 4.51 |

Measured on MCF-7/VP cells, N.NC1CCCCC1.[Cl-].[Cl-].[Pt+2] has a documented pIC50 of 5.89
